- TARGET_UNDER_TEST: T1, Cynomolgus TCR(AEA41865/AEA41866)-zipper protein (cynomolgus monkey)
- T1 construct: also called cyTCR-zipper protein; cynoTCR zipper
- T1 TCR alpha: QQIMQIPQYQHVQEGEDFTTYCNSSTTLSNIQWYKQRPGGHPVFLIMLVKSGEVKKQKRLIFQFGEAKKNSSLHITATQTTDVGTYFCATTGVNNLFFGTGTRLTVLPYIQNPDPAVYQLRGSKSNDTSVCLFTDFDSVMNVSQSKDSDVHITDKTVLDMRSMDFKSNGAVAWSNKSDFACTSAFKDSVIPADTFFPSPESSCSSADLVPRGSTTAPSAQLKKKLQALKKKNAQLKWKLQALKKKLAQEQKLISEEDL
- T1 TCR beta: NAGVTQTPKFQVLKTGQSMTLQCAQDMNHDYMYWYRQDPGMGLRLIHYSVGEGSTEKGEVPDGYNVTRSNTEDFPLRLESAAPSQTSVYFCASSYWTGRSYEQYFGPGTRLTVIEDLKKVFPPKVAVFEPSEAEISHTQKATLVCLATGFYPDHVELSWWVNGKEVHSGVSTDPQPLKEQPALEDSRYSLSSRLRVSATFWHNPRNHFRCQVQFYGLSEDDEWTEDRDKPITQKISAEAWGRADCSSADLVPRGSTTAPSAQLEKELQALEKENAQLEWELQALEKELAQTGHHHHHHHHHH
- PROTOCOL_DESCRIPTION: SPR, ProteOn XPR36, 25 C, immobilised TCR-zipper
PARAMETER: pKd
Scale: pKd equals -log10([C]), with [C] in mol/L.

BINDER: T017000643 (bispecific antibody, also called A0110056A10(E1D)-35GS-T0170056G05(L11V, G26W, L34Y, G35T, M77T, K83R, V89L, F91Y, F95L, R97K, Y99W)-A) DVQLVESGGGLVQAGGSLRLSCAASGITSKINDMGWYRQTPGNYREWVASITATGTTNYRDSVKGRFTISRDNAKSTVYLQMNSLKPEDTTVYYCNTFPPISNFWGQGTLVTVSSGGGGSGGGGSGGGGSGGGGSGGGGSGGGGSGGGGSEVQLVESGGGVVQPGGSLRLSCVASWDVHKINFYTWYRQAPGKEREKVAHISIGDQTDYADSAKGRFTISRDESKNTVYLQMNSLRPEDTALYYCRALSKIWPYDYWGQGTLVTVSSA
ENDPOINT_RESULT: 6.05
//
BINDER: T017000639 (bispecific antibody) DVQLVESGGGVVQPGGSLRLSCVASWDVHKINFYTWYRQAPGKEREKVAHISIGDQTDYADSAKGRFTISRDESKNTVYLQMNSLRPEDTALYYCRALSRIWPYDYWGQGTLVTVSSGGGGSGGGGSGGGGSGGGGSGGGGSGGGGSGGGGSEVQLVESGGGLVQAGGSLRLSCAASGITSKINDMGWYRQTPGNYREWVASITATGTTNYRDSVKGRFTISRDNAKSTVYLQMNSLKPEDTTVYYCNTFPPISNFWGQGTLVTVSSA
ENDPOINT_RESULT: 7.36
//
BINDER: T017000642 (bispecific antibody) DVQLVESGGGVVQPGGSLRLSCVASWDVHKINFYTWYRQAPGKEREKVAHISIGDQTDYADSAKGRFTISRDESKNTVYLQMNSLRPEDTALYYCRALSKIWPYDYWGQGTLVTVSSGGGGSGGGGSGGGGSGGGGSGGGGSGGGGSGGGGSEVQLVESGGGLVQAGGSLRLSCAASGITSKINDMGWYRQTPGNYREWVASITATGTTNYRDSVKGRFTISRDNAKSTVYLQMNSLKPEDTTVYYCNTFPPISNFWGQGTLVTVSSA
ENDPOINT_RESULT: 8.26

Ask | Report measured pKd; entry is T017000640 (bispecific antibody, also called A0110056A10(E1D)-35GS-T0170056G05(L11V, G26W, L34Y, G35T, M77T, K83R, V89L, F91Y, F95L, Y99W)-A) DVQLVESGGGLVQAGGSLRLSCAASGITSKINDMGWYRQTPGNYREWVASITATGTTNYRDSVKGRFTISRDNAKSTVYLQMNSLKPEDTTVYYCNTFPPISNFWGQGTLVTVSSGGGGSGGGGSGGGGSGGGGSGGGGSGGGGSGGGGSEVQLVESGGGVVQPGGSLRLSCVASWDVHKINFYTWYRQAPGKEREKVAHISIGDQTDYADSAKGRFTISRDESKNTVYLQMNSLRPEDTALYYCRALSRIWPYDYWGQGTLVTVSSA
Reply | 4.82

Ask | Report measured pKd; entry is T017000636 (bispecific antibody) DVQLVESGGGVVQPGGSLRLSCVASWDVHQINFYGWYRQAPGKEREKVAHISIGDQTDYADSAKGRFTISRDESKNTVYLQMNSLRPEDTALYYCRALSRIWPYDYWGQGTLVTVSSGGGGSGGGGSGGGGSGGGGSGGGGSGGGGSGGGGSEVQLVESGGGLVQAGGSLRLSCAASGITSKINDMGWYRQTPGNYREWVASITATGTTNYRDSVKGRFTISRDNAKSTVYLQMNSLKPEDTTVYYCNTFPPISNFWGQGTLVTVSSA
Reply | 7.54

Ask | Report measured pKd; entry is T017000634 (bispecific antibody, also called A0110056A10(E1D)-35GS-T0170056G05(L11V, D27Y, L34Y, M77T, K83R, V89L, F91Y, F95L, Y99W)-A) DVQLVESGGGLVQAGGSLRLSCAASGITSKINDMGWYRQTPGNYREWVASITATGTTNYRDSVKGRFTISRDNAKSTVYLQMNSLKPEDTTVYYCNTFPPISNFWGQGTLVTVSSGGGGSGGGGSGGGGSGGGGSGGGGSGGGGSGGGGSEVQLVESGGGVVQPGGSLRLSCVASGYVHKINFYGWYRQAPGKEREKVAHISIGDQTDYADSAKGRFTISRDESKNTVYLQMNSLRPEDTALYYCRALSRIWPYDYWGQGTLVTVSSA
Reply | 6.70

Ask | Report measured pKd; entry is T017000630 (bispecific antibody, also called A0110056A10(E1D)-35GS-T0170056G05(L11V, G26W, L34Y, M77T, K83R, V89L, F91Y, F95L, R97K, Y99W)-A) DVQLVESGGGLVQAGGSLRLSCAASGITSKINDMGWYRQTPGNYREWVASITATGTTNYRDSVKGRFTISRDNAKSTVYLQMNSLKPEDTTVYYCNTFPPISNFWGQGTLVTVSSGGGGSGGGGSGGGGSGGGGSGGGGSGGGGSGGGGSEVQLVESGGGVVQPGGSLRLSCVASWDVHKINFYGWYRQAPGKEREKVAHISIGDQTDYADSAKGRFTISRDESKNTVYLQMNSLRPEDTALYYCRALSKIWPYDYWGQGTLVTVSSA
Reply | 6.62

Ask | Report measured pKd; entry is T017000633 (bispecific antibody) DVQLVESGGGVVQPGGSLRLSCVASGYVHKINFYGWYRQAPGKEREKVAHISIGDQTDYADSAKGRFTISRDESKNTVYLQMNSLRPEDTALYYCRALSRIWPYDYWGQGTLVTVSSGGGGSGGGGSGGGGSGGGGSGGGGSGGGGSGGGGSEVQLVESGGGLVQAGGSLRLSCAASGITSKINDMGWYRQTPGNYREWVASITATGTTNYRDSVKGRFTISRDNAKSTVYLQMNSLKPEDTTVYYCNTFPPISNFWGQGTLVTVSSA
Reply | 7.77

Ask | Report measured pKd; entry is T017000627 (bispecific antibody) DVQLVESGGGVVQPGGSLRLSCVASWDVHKINFYGWYRQAPGKEREKVAHISIGDQTDYADSAKGRFTISRDESKNTVYLQMNSLRPEDTALYYCRALSKIWPYDYWGQGTLVTVSSGGGGSGGGGSGGGGSGGGGSGGGGSGGGGSGGGGSEVQLVESGGGLVQAGGSLRLSCAASGITSKINDMGWYRQTPGNYREWVASITATGTTNYRDSVKGRFTISRDNAKSTVYLQMNSLKPEDTTVYYCNTFPPISNFWGQGTLVTVSSA
Reply | 8.28

Ask | Report measured pKd; entry is T017000131 (bispecific antibody, also called A0110056A10(E1D)-35GS-T0170056G05-A) DVQLVESGGGLVQAGGSLRLSCAASGITSKINDMGWYRQTPGNYREWVASITATGTTNYRDSVKGRFTISRDNAKSTVYLQMNSLKPEDTTVYYCNTFPPISNFWGQGTLVTVSSGGGGSGGGGSGGGGSGGGGSGGGGSGGGGSGGGGSEVQLVESGGGLVQPGGSLRLSCVASGDVHKINFLGWYRQAPGKEREKVAHISIGDQTDYADSAKGRFTISRDESKNMVYLQMNSLKPEDTAVYFCRAFSRIYPYDYWGQGTLVTVSSA
Reply | 5.80
